experiment: reduction of Shn3 3'UTR firefly luciferase signal, primary screen, Schnurri-3 inhibitor project, cell-based, Clone20 osteoblasts, set 2 (AID 588674); conditions: Clone20 osteoblast Shn3 3'UTR firefly luciferase, 24 h; at 12.5 µM
The campaign covered roughly 360,000 compounds. About 1,800 (0.5%) were called active.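 The calls were made as follows: active = mean inhibition of at least 75% with every replicate also reaching 75%; inconclusive = mean inhibition at least 75% but some replicate below; inactive = mean inhibition below 75%.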 Many of the other results were omitted from the sample, so actives are more common in it than they were.
# output must be one of yes for active, no for inactive

CC(=O)CSc1nnc(CSc2ncccn2)n1C1CCCCC1: no

Okay, now this compound:
Ask: Status in this test for "COc1cc(SC)ccc1C(=O)Nc1nc(C)cs1" ?
Result: yes

* * *

assay: reduction of Shn3 3'UTR firefly luciferase signal, primary screen, Schnurri-3 inhibitor project, cell-based, Clone20 osteoblasts, set 2 (AID 588674); conditions: Clone20 osteoblast Shn3 3'UTR firefly luciferase, 24 h; at 12.5 µM
In all, about 360,000 compounds went through this assay and about 1,800 (0.5%) were called active.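 How the source made its calls: active means mean inhibition of at least 75% with every replicate also reaching 75%; inconclusive means mean inhibition at least 75% but some replicate below; inactive means mean inhibition below 75%.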 The sample as a whole holds a higher share of actives than the screen did.
Allowed answers: active, inactive

// below: answered molecules
CN1OC[C@@H]2CN(C(=O)c3cccc4ccccc34)[C@H](c3ccc(N4CCCCC4)cc3)C[C@@H]21: inactive
CC1(C(=O)NS(=O)(=O)Cc2cccc(Cl)c2)CCN1C(=O)Cc1ccc(Cl)cc1Cl (stereo not given): inactive
C[C@H](NC(=O)CC[C@H]1O[C@@H](n2ccc(=O)[nH]c2=O)[C@H](O)[C@@H]1O)c1cccc2ccccc12: inactive

Ask: What did this assay record as the result for "O=C(NCCSCc1ccccc1)c1ccc(Cl)c(S(=O)(=O)N2CCOCC2)c1" ?
Result: inactive

Ask: Identify the outcome logged in this assay for the molecule shown: "CC(C)(CNC(=O)c1ccc(Cl)c(S(=O)(=O)N2CCc3ccccc3C2)c1)N1CCOCC1"
Result: active

Ask: Which outcome was entered for the molecule "Cc1nnc(N/N=C/c2ccccn2)[nH]c1=O" in this test?
Result: active

Ask: Query: recorded result category for "Cc1cc(=O)[nH]c(N/N=C/c2c(C)nn(-c3ccccc3Cl)c2Cl)n1" in this test
Result: inactive

Ask: Dear colleague, could you share the recorded outcome for "CCOC(=O)c1cnc(-n2nc(C)cc2C)nc1NNc1cc(C)nc(-c2ccccc2)n1" when you have a moment?
Result: active

Ask: Recorded test call requested for "COc1ccccc1/C=C/C=N/n1c(-c2ccc(Cl)cc2Cl)n[nH]c1=S"
Result: inactive

Ask: Outcome? "Cc1ccc(NC(=O)CN(C)CC(=O)Nc2cccc(F)c2)cc1[N+](=O)[O-]"
Result: active

* * *

test: reduction of Shn3 3'UTR firefly luciferase signal, primary screen, Schnurri-3 inhibitor project, cell-based, Clone20 osteoblasts, set 2 (AID 588674); conditions: Clone20 osteoblast Shn3 3'UTR firefly luciferase, 24 h; at 12.5 µM
Out of some 360,000 compounds screened, about 1,800 (0.5%) were called active.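 The calls were made as follows: active = mean inhibition of at least 75% with every replicate also reaching 75%; inconclusive = mean inhibition at least 75% but some replicate below; inactive = mean inhibition below 75%.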 What follows is part of a selection rich in actives, with near analogues and random picks from the rest.
Hi! Could you answer with just one of these? active, inactive

Below are worked cases with known answers.
Cc1cccc(NC(=O)c2nc(S(=O)(=O)Cc3ccccc3)ncc2Cl)c1: active
Cc1cccc(NC(=O)CCN2CC(C)CC(C)C2)c1 (stereo unspecified): inactive
C/C(=N\NC(=O)c1ccccc1F)c1ccccn1: active
Cc1cccc(CS(=O)(=O)c2ncc(Cl)c(C(=O)Nc3ccc(F)cc3)n2)c1: active
Cc1ccc(C)c(Cn2nnc3c(=O)[nH]c(C(=O)Nc4ccc(F)cc4)nc32)c1: inactive

Kindly review the next molecule as well.
Ask: # outcome recorded in this test, key = "O=C(NCCOc1ccccc1)c1ccccc1F"
Result: inactive
